Recorded values, source patent US20220348651A1.

Target: T1, recombinant human ENTPD2 extracellular domain (residues 29-462) with C-terminal Avi-His6 tag (human, UniProt Q9Y5L3 29-462, biotinylated on the AviTag in the epitope binning assay)
T1 construct: also called human ENTPD2 ECD; Human ENTPD2-Avi-His6 protein
T1 sequence (Q9Y5L3 29-462): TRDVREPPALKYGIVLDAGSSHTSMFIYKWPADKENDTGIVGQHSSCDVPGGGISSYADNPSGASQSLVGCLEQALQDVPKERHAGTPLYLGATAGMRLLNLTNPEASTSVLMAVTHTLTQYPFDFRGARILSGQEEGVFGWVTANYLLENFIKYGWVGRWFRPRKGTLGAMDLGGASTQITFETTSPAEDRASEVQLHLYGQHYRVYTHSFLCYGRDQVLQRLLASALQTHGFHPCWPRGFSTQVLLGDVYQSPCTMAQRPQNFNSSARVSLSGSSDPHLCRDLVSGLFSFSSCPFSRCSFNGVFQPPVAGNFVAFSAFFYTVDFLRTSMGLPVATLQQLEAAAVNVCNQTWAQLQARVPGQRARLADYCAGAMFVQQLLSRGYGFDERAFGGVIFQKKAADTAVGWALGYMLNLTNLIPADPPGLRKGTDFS
Test: SPR Biacore, mAb captured, ECD analyte, 25C
observation.type: koff (s⁻¹)
Please respond with the number in s⁻¹ and leave the unit unwritten.

Lookup: Return reported koff; argument: ANTI-HUMAN ENTPD2 MAB4 (antibody, human IgG1, kappa, V domains shown, humanized and optimized from mAb16; human IgG1, kappa; also called Anti-ENTPD2 mAb4) VH: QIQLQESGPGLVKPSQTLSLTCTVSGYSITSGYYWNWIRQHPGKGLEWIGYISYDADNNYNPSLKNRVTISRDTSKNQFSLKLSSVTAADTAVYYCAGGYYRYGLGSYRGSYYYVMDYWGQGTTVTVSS VL: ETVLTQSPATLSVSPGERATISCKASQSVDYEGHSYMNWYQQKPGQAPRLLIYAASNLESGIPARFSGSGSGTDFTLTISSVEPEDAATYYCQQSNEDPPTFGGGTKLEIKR
Found: 0.00022
